- tested_target: human recombinant dopamine D2L receptor (Homo sapiens, UniProt P14416)
- Construct: expressed in transfected cells; host or cells: CHO cells
- Sequence (P14416 whole entry): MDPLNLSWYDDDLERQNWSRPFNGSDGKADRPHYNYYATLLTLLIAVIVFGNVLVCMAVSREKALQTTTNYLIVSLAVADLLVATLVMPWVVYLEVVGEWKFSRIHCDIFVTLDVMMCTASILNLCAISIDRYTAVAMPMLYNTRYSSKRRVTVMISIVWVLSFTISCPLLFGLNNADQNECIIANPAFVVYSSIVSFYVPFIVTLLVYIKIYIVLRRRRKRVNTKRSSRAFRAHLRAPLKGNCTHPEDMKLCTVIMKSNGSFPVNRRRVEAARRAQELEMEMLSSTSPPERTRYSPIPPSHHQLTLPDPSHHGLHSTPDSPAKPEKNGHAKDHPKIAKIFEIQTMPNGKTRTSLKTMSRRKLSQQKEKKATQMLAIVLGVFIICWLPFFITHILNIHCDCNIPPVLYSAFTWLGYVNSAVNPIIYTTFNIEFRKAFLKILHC
- method_description: Dopamine D2L radioligand binding ([3H]Spiperone)
- assay_conditions: compound at 1 μM; CHO cells; read-out: Dopamine (1 μM) D2L, percent inhibition of specific binding
quantity_name: inhibition at 1 µM (%)

> print(dat)
                                    compound  endpoint.result
 1  Cc1ccc2c(c1)c1c(n2CCNC(=O)c2ccncc2C)CCN(C)C1 [Compound 69]                4
 2  CN1CCc2c(c3cc(Cl)ccc3n2CCC(=O)OCC2CCCCC2)C1 [Compound 20]               19
 3  Cc1ccc2c(c1)c1c(n2CC(=O)Nc2ccc(F)cc2)CCN(C)C1 [Compound 51]               19
 4  Cc1ccc2c(c1)c1c(n2CCNC(=O)C2CCCC2)CCN(C)C1 [Compound 68]                1
 5  CCNC(=O)Cn1c2c(c3cc(C)ccc31)CN(C)CC2 [Compound 22]               -2
 6  CCOC(=O)Cn1c2c(c3cc(C)ccc31)CN(C)CC2 [CD57]               12
 7     Cc1ccc2c(c1)c1c(n2CCN)CCN(C)C1 [CD62]               26
 8  CN1CCc2c(c3cc(Cl)ccc3n2CCC(=O)NC2CCCC2)C1 [Compound 31]                9
 9    CN1CCc2c(c3cc(Cl)ccc3n2CCC#N)C1 [CD94]                1
10  Cc1ccc2c(c1)c1c(n2CC(=O)NC(C)C)CCN(C)C1 [Compound 23]                5
11  Cc1ccc2c(c1)c1c(n2CCNC(=O)c2ccc(F)cc2Cl)CCN(C)C1 [Compound 63]                7
12  CN1CCc2c(c3cc(Cl)ccc3n2CC(=O)NC2CCCC2)C1 [Compound 27]               -2
13  Cc1ccc2c(c1)c1c(n2CCNC(=O)c2ccncc2)CCN(C)C1 [Compound 50]                7
14  Cc1ccc2c(c1)c1c(n2CCC(=O)Nc2ccc(F)cc2)CCN(C)C1 [Compound 47]               -3
15  Cc1ccc2c(c1)c1c(n2CCC(=O)NC(C)C)CCN(C)C1 [Compound 53]               -2
16  CC(C)OC(=O)CCn1c2c(c3cc(Cl)ccc31)CN(C)CC2 [Compound 17]               13
17  Cc1ccc2c(c1)c1c(n2CCC(N)=O)CCN(C)C1 [Compound 46]                4
18  Cc1ccc2c(c1)c1c(n2CCNC(=O)C2CCCCC2)CCN(C)C1 [Compound 62]                5
19  Cc1ccc2c(c1)c1c(n2CC(=O)NCc2ccccc2)CCN(C)C1 [Compound 25]               -3
20  CN1CCc2c(c3cc(Cl)ccc3n2CCC(N)=O)C1 [Compound 67]               -1
21  CN1CCc2c(c3cc(Cl)ccc3n2CCC(=O)O)C1 [CD55]                3
22      CN1CCc2c(c3cc(Cl)ccc3n2CCO)C1 [CD89]                0
23  CN1CCc2c(c3cc(Cl)ccc3n2CC(=O)O)C1 [CD46]                3
24  CN1CCc2c(c3cc(Cl)ccc3n2CC(=O)OCc2ccccc2)C1 [Compound 13]               38
25  Cc1ccc2c(c1)c1c(n2CCC(=O)NCC2CCCCC2)CCN(C)C1 [Compound 30]                7
26  CN1CCc2c(c3cc(Cl)ccc3n2CC(=O)OC(C)(C)C)C1 [Compound 12]               23
27  Cc1ccc2c(c1)c1c(n2CC(N)=O)CCN(C)C1 [Compound 64]                2
28  Cc1ccc2c(c1)c1c(n2CCC(=O)O)CCN(C)C1 [CD47]                4
29  CCOC(=O)Cn1c2c(c3cc(Cl)ccc31)CN(C)CC2 [Compound 10]               12
30  Cc1ccc2c(c1)c1c(n2CCNC(=O)c2ccc(F)cc2)CCN(C)C1 [Compound 66]               -2
31  Cc1ccc2c(c1)c1c(n2CC(=O)NC(C)(C)C)CCN(C)C1 [Compound 24]                3
32  CN1CCc2c(c3cc(Cl)ccc3n2CC(=O)OC2CCCC2)C1 [Compound 15]               26
33  Cc1ccc2c(c1)c1c(n2CCNC(=O)C2CCCNC2)CCN(C)C1 (stereo not drawn) [Compound 9]                2
34  Cc1ccc2c(c1)c1c(n2CCNC(=O)C2CCNCC2)CCN(C)C1 [Compound 65]                7
35  CN1CCc2c(c3cc(Cl)ccc3n2CC(=O)N(C)C)C1 [Compound 48]               -6
36    Cc1ccc2c(c1)c1c(n2CCBr)CCN(C)C1 [CD91]               15
37  Cc1ccc2c(c1)c1c(n2CCNC(=O)C(C)C)CCN(C)C1 [Compound 61]               -3
38  CN1CCc2c(c3cc(Cl)ccc3n2CCC(=O)OCc2ccccc2)C1 [Compound 19]               31
39  CN1CCc2c(c3cc(Cl)ccc3n2CC(=O)OCC2CCCCC2)C1 [Compound 14]               31
